pKi listing for selected compounds.
# Subject Of Test: adenosine transporter (ENT1) (Cavia porcellus)
# Sequence (H0V4R7 1-461): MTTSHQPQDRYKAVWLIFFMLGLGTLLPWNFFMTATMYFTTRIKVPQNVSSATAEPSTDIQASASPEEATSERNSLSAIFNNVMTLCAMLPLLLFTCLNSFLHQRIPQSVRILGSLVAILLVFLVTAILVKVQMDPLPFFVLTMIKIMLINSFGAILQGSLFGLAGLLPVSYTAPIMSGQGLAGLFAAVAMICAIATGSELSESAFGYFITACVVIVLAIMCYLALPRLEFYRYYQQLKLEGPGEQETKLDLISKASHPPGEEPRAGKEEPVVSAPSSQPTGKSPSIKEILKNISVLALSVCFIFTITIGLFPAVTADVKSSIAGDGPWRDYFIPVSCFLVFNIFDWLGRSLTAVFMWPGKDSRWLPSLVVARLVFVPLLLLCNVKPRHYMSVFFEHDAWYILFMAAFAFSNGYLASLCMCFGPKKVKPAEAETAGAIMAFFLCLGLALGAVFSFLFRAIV
# Method Summary: Adenosine transporter (ENT1) radioligand binding assay (3H-NBTI)
pKi: −log10 of the molar value.
Readout: pKi

1. OC[C@H]1O[C@@H](n2cnc3c(NCc4ccc(Br)s4)ncnc32)[C@H](O)[C@@H]1O [JMF3464, N^6-[(5-bromothien-2-yl)methyl]adenosine] ... 7.30
2. OC[C@H]1O[C@@H](n2cnc3c(NCCc4c[nH]c5ccccc45)ncnc32)[C@H](O)[C@@H]1O [JMF1907, N^6-[2-(indol-3-yl)ethyl]adenosine] ... 5.46

Origin of measurements: patent US10301348B2
